The measured values listed here are drawn from BindingDB's records for PubMed 9454810.

- assayedSystem: VIP peptides (Homo sapiens)
- Sequence (P01282 whole entry): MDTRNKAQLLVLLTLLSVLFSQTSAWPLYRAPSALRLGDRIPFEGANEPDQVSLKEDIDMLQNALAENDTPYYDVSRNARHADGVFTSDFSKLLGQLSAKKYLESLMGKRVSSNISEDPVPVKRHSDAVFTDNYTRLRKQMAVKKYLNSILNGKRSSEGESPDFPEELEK
pKi: −log10 of the molar value.
measuredMetric: pKi

// pKi lookup, compound = Cc1ccc(Cn2nc(C(=O)NC3C(C)(C)C4CC[C@@]3(C)C4)cc2-c2ccc(Cl)c(C)c2)cc1 (stereo partly specified) , result: < 5.00

* * *

- assayedSystem: Thromboxane A2 receptor (Homo sapiens, UniProt P21731)
- Sequence (P21731 whole entry): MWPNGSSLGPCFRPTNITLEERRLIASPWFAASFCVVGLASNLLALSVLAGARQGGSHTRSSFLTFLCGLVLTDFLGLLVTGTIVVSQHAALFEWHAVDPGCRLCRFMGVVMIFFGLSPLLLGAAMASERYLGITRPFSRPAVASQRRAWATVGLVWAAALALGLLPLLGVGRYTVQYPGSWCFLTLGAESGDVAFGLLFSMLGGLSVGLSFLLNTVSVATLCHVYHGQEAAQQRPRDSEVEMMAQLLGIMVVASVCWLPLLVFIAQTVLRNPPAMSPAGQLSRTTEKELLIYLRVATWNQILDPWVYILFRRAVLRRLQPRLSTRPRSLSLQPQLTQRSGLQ
pKi: −log10 of the molar value.
measuredMetric: pKi

With Thromboxane A2 receptor (Homo sapiens, UniProt P21731) as the test system, Cc1ccc(Cn2nc(C(=O)NC3C(C)(C)C4CC[C@@]3(C)C4)cc2-c2ccc(Cl)c(C)c2)cc1 (stereo partly specified) showed pKi of < 5.00

* * *

- assayedSystem: B2 bradykinin receptor (Homo sapiens)
- Sequence (P30411 whole entry): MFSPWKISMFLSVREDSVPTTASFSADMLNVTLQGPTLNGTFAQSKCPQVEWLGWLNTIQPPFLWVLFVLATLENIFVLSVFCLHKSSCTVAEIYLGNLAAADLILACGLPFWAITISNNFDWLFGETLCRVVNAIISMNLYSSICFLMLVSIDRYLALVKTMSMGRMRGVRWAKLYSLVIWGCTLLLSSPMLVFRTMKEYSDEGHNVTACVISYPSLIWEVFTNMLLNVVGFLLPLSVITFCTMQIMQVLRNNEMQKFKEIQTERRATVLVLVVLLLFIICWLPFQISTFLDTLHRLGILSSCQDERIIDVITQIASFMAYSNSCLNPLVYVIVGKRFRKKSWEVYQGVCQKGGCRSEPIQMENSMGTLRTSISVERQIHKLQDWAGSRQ
measuredMetric: Ki

// Ki lookup, molecule = Cc1ccc(Cn2nc(C(=O)NC3C(C)(C)C4CC[C@@]3(C)C4)cc2-c2ccc(Cl)c(C)c2)cc1 (stereo partly specified) , result: > 10 µM

* * *

- assayedSystem: Neuropeptide Y receptor type 2 (Homo sapiens, UniProt P49146)
- Sequence (P49146 whole entry): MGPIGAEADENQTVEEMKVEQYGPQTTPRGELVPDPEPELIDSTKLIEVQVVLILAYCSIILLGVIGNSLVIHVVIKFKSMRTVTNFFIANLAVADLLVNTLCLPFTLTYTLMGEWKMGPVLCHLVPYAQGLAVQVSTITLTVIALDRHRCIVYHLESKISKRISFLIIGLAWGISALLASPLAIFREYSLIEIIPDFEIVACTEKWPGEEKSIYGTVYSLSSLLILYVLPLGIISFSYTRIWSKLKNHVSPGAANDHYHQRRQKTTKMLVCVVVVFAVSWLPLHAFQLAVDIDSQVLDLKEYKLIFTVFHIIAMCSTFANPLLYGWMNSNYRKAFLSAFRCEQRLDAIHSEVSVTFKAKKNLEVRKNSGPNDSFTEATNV
pKi: −log10 of the molar value.
measuredMetric: pKi

// pKi lookup, compound = Cc1ccc(Cn2nc(C(=O)NC3C(C)(C)C4CC[C@@]3(C)C4)cc2-c2ccc(Cl)c(C)c2)cc1 (stereo partly specified) , result: < 5.00
